# median seed-adjusted z-score annotations
- assayMethodText: Novel Modifiers of Survival Motor Neuron (SMN) Protein: Gene Identification via Genome-wide siRNA Screen;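 also: luminescence tracks full-length SMN protein made from the SMN2 reporter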
- testParameters: HEK293T SMN2-luciferase reporter, siRNA knockdown, 72 h; actives lie on both sides
The campaign covered roughly 31,000 sequences. About 1,400 (4.5%) were called active. The sample as a whole holds a higher share of actives than the screen did.
resultType: median seed-adjusted z-score

>>> recordednumber("CAGGUAUGGUGAACCGUGATT against YES1")
-0.508
>>> recordednumber("GCUAUAAGGUGGAACGGCATT against POLR2A")
-3.81
>>> recordednumber("CCUUAAGAGGGAUGAUAAATT against SAFB")
-0.954
>>> recordednumber("CAAGAGCACCGGUAAGGAATT against HSPA2")
-0.0343
>>> recordednumber("CCCUGGAUGUCCUAUCUGATT against SLC2A1")
-0.349
>>> recordednumber("CAUUGGGCCUAGAAAUUCATT against CNKSR1")
0.217

Measured values drawn from PubChem BioAssay AID1347426 for this set.
